GI50 listing for selected compounds.
Tested on: OVCAR-4
assay_notes: NCI tumour cell line growth inhibition, 48 h
The source made the active and inactive calls. Rule as the data show it: active = GI50 up to about 1.1 µM and inactive = higher.

C[C@@H]1C(=O)CC2(O)[C@@]13C[C@@H](OC(=O)[C@@H]3O)[C@@H](C)[C@@]21COC1=O (stereo partly specified) ... > 100 µM (inactive)
FC(F)(F)c1cccc(/C=N/C23CC4CC(CC(C4)C2)C3)c1 ... > 100 µM (inactive)
COc1cc(/C=C2\N=C(c3ccccc3)N(c3ccc(C(=O)c4ccccc4)cc3N3C(=O)/C(=C/c4cc(OC)c(OC)c(OC)c4)N=C3c3ccccc3)C2=O)cc(OC)c1OC ... 21.8 µM (inactive)
Cc1cc(C)n2c(nc3ccccc32)c1C#N ... 10.8 µM (inactive)
COc1ccc(NC(=S)NC(=O)c2ccc3c(c2)Sc2ccccc2O3)c([N+](=O)[O-])c1 ... 14.9 µM (inactive)

# query: GI50 of entry `CN(C)C(=N)/N=C(\N)Nc1cccc(Cl)c1`
> 100 µM (inactive)

# query: GI50 of entry `CSCCCNC(=O)c1csc(-c2csc(CCNC(=O)CNC(=O)OC(C)(C)C)n2)n1`
> 100 µM (inactive)
